Molecular target: Phosphatidylinositol 4,5-bisphosphate 3-kinase catalytic subunit alpha isoform (Homo sapiens) (UniProt P42336);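 further: values are mean percent inhibition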
Sequence (P42336 whole entry, canonical isoform): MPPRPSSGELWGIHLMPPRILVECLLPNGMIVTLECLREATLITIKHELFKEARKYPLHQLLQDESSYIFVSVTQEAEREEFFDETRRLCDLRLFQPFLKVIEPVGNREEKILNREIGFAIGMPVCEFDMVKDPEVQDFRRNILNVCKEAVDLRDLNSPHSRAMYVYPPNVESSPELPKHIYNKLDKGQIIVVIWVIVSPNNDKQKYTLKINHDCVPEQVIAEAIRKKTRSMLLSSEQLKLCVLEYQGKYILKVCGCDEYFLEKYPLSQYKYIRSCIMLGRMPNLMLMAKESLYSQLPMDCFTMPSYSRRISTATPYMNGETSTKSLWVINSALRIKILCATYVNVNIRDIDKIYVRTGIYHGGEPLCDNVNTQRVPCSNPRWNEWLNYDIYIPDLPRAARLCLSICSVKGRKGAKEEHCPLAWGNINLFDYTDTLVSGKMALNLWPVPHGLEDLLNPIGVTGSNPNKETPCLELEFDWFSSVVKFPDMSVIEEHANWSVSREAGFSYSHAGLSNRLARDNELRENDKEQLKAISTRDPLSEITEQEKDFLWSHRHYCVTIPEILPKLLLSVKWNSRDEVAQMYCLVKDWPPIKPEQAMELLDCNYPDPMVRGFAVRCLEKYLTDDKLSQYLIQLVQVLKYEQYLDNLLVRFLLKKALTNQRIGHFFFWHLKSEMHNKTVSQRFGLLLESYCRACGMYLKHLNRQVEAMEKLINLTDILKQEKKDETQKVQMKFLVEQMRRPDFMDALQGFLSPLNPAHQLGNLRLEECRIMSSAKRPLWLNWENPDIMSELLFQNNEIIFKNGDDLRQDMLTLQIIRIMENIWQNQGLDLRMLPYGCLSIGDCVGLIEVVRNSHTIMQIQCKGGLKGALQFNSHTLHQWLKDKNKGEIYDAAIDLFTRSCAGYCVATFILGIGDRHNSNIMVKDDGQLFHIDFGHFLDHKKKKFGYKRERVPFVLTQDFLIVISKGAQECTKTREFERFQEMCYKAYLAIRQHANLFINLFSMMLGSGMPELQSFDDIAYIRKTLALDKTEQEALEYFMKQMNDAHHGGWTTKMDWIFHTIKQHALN
Conditions: at 1 µM
measured.metric: inhibition (%)
One number for each entry, in %.

Below, each entry is followed by its recorded inhibition result.
| smiles.representation | inhibition [%] |
| --- | --- |
| Nc1nc(-c2cccc(Cl)c2)c(-c2ccc3ncccc3n2)s1 | 8.41 |
| CCN1CCC(CC(=O)Nc2n[nH]c3nnc(-c4cccc(F)c4F)cc23)CC1 | 2.58 |
| COc1cccc(-n2ncc3c(N/N=C/c4ccc(F)cc4)ncnc32)c1 | 19.1 |

Here is another molecule to look at.
Entry FC(F)(F)c1cccc(-c2nn3ncccc3c2-c2ccnc(Nc3ccc4c(c3)OCCO4)n2)c1 : reported inhibition = ?
3.02

###

Kindly state inhibition for each of the entries shown.
Molecular target: NT-3 growth factor receptor (Homo sapiens) (UniProt Q16288);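 further: mean TRKC inhibition from the GSK PKIS kinase inhibitor set, with assays run by Nanosyn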
Sequence (Q16288 32-839 limits assumed): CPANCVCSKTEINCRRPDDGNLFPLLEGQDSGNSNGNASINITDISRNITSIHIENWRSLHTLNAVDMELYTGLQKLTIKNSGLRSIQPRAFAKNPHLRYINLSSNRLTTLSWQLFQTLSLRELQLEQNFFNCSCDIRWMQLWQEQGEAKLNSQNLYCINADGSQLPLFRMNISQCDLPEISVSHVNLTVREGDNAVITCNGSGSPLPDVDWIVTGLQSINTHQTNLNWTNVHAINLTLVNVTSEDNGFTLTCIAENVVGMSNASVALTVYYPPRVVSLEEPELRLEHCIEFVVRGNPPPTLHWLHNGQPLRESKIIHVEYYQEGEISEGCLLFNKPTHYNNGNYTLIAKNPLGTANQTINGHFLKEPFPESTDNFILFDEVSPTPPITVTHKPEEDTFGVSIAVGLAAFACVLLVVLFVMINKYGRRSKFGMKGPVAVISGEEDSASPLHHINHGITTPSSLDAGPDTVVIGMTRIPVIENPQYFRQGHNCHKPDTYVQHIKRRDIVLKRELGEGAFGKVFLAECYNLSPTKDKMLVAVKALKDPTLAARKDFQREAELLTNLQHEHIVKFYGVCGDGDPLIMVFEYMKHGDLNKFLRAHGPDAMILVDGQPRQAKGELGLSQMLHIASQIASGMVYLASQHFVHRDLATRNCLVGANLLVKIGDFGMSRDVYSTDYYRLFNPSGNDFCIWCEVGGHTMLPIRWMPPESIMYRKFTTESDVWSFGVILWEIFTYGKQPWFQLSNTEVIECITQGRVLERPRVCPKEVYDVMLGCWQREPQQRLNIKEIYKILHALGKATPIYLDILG
Details: at 1 µM
Numbers only, in %.

Use the examples below as a reference point.
| smiles.representation | measurement.target | inhibition [%] |
| --- | --- | --- |
| COc1ccc(-c2cc(-c3c[nH]nc3-c3ccccn3)ccn2)cc1 | NT-3 growth factor receptor (Homo sapiens) (UniProt Q16288) | 5.62 |
| CCn1c(-c2nonc2N)nc2c(C#CC(C)(C)O)ncc(OC3CCNCC3)c21 | NT-3 growth factor receptor (Homo sapiens) (UniProt Q16288) | -0.14 |
| Cc1cccc(Nc2ncc(-c3ccccc3)o2)c1 | NT-3 growth factor receptor (Homo sapiens) (UniProt Q16288) | 12.2 |

Below are some compounds; for each one, tell me its inhibition.
1. Cc1ccc2c(-c3ccnc(Nc4ccccc4)n3)c(-c3ccc(F)cc3)nn2n1
2. NS(=O)(=O)c1ccc(Nc2ncc(-c3ccccc3)o2)cc1

[11.8, 16.7]

###

Target: Serine/threonine-protein kinase Chk1 (Homo sapiens) (UniProt O14757);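 further: mean inhibition of CHEK1, part of the GSK PKIS profiling set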
Sequence (whole entry): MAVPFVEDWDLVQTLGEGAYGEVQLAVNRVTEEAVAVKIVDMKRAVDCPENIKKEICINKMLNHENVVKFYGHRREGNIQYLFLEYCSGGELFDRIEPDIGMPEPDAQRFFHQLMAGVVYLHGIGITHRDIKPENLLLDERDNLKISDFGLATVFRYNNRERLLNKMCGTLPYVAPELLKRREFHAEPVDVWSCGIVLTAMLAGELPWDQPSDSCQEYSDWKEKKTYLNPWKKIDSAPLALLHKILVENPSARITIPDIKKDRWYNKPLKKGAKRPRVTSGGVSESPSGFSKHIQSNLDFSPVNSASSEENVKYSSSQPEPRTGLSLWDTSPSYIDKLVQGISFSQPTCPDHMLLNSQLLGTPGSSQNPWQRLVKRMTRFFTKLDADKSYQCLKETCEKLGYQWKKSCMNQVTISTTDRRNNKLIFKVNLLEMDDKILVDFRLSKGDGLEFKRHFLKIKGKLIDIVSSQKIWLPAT
Conditions: at 1 µM
measured.metric: inhibition (%)
One number for each entry, in %.

| compound | inhibition (%) |
| --- | --- |
| CN1CCC(n2cnc(-c3ccc(F)cc3)c2-c2ccnc(Nc3ccccc3)n2)CC1 | 1.3 |
| O=C(Nc1n[nH]c2cc(-c3ccc(F)cc3)ccc12)C1CC1 | 10.8 |
| Cc1cccc(Nc2ncc(-c3ccccc3)o2)c1 | 6.26 |
| N#Cc1c(NC(=O)CN2CCOCC2)sc2c1CCCC2 | 5.06 |
| COC(=O)c1sc(-n2cnc3cc(OC)c(OC)cc32)cc1OCc1ccccc1C(F)(F)F | 2.67 |

Can you give me inhibition for all of these, one by one?
1. CCn1cc(-c2ccnc3[nH]ccc23)c(-c2cccc(NC(=O)Nc3ccc(OCc4ccccc4)cc3)c2)n1
2. CCc1nn2ncccc2c1-c1ccnc(NC2CC2)n1
3. FC(F)(F)c1cccc(-c2nn3ncccc3c2-c2ccnc(Nc3ccc4c(c3)OCCO4)n2)c1
4. COC(=O)Nc1nc2ccc(S(=O)(=O)c3ccc(NC(=O)Nc4cc(C(F)(F)F)ccc4F)cc3)cc2[nH]1
5. COc1ccc2[nH]c3c4[nH]c5ccc(OC)cc5c4c4c(c3c2c1)C(=O)NC4=O
6. CCCN(CCS(C)(=O)=O)Cc1ccc(-c2ccc3ncnc(Nc4ccc(OCc5cccc(F)c5)c(Cl)c4)c3c2)o1
7. c1cc(-c2cnn3nc(N4CCOCC4)ccc23)nc(NC2CC2)n1
8. Fc1cccc(COc2ccc(Nc3ncnc4sc(-c5ccco5)cc34)cc2Cl)c1

-1.06
2.69
2.98
3.43
65.6
6.58
1.64
12.5

Quick batch: inhibition for everything below.
1. NS(=O)(=O)c1ccc(Nc2ncc(-c3ccccc3)o2)cc1
2. CNC(=O)c1cc(-c2ccc(F)cc2)cc(-c2ccc(S(=O)(=O)N3CCCC3)cc2)c1N
3. Nc1ncc(-c2cccc(S(N)(=O)=O)c2)c2scc(-c3ccc(F)c(Cl)c3)c12
4. COc1cc2ncn(-c3cc(OCc4ccccc4C(F)(F)F)c(C(=O)N(C)C)s3)c2cc1OC
5. CCn1c(-c2nonc2N)nc2c(C#CC(C)(C)O)ncc(OC3CCNCC3)c21

1. 7.56
2. 11.8
3. 2.44
4. 1.32
5. 4.29

Take each entry in turn and give its inhibition.
1. CC(=O)Nc1cccc(C#Cc2cncnc2Nc2ccc(OCc3cccc(F)c3)c(Cl)c2)c1
2. CC(C)COC(=O)c1ccc2c(c1)/C(=C/Nc1ccc(S(N)(=O)=O)cc1)C(=O)N2
3. CCCN1CCC(c2ccc(Nc3nc(Nc4cc(F)ccc4C(N)=O)c4cc[nH]c4n3)c(OC)c2)CC1
4. NS(=O)(=O)c1ccc(N/N=C2\C(=O)Nc3ccc4ncccc4c32)cc1

-3.6
18.1
10.7
41.1
